test system: foxtail, giant (giant foxtail, Setaria faberii); test: Test A preemergence, visual injury rating 0-100; format: in vivo; settings: 500 g ai/ha
value_type: Foxtail, Giant plant response rating (0 to 100 scale)
Give the value as a plain number.

CC1=[N+]([O-])C(C(=O)Nc2cccc(F)c2F)C(c2ccc(OC(F)(F)F)c(F)c2)C1 (racemic) [Compound 113] | 90
CC1=[N+]([O-])C(C(=O)Nc2cccc(F)c2F)C(c2ccc(C)c(Cl)c2)C1 (racemic) [Compound 72] | 90
CC1=[N+]([O-])C(C(=O)Nc2cccc(F)c2F)C(c2ccc(F)c(Oc3ncc(F)cn3)c2)C1 (racemic) [Compound 52] | 100
CC1=[N+]([O-])C(C(=O)Nc2cccc(F)c2F)C(c2ccc(C(F)(F)F)c(Cl)c2)C1 (racemic) [Compound 102] | 90
CC1=[N+]([O-])C(C(=O)Nc2cccc(F)c2F)C(c2ccc(Cl)c(F)c2)C1 (racemic) [Compound 107] | 90
CC1=[N+]([O-])C(C(=O)Nc2cccc(F)c2F)C(c2cc(C)nc(OC(F)F)c2)C1 (racemic) [Compound 83] | 90

# Foxtail, Giant plant response rating (0 to 100 scale) measured on foxtail, giant (giant foxtail, Setaria faberii) for item CC1=[N+]([O-])C(C(=O)Nc2cccc(F)c2F)C(c2cccc(Cl)c2C)C1 (racemic) [Compound 117] = 90
